Data credit: patent US20240150797A1

- EXPERIMENT_NOTES: Specific activity of purified CHI, absorbance decrease at 384 nm, naringenin chalcone; also: unit not given here
- Type: biochemical
- CONDITION_DETAILS: purified CHI in 50 mM PBS, 100 μM substrate, 25° C.
- Description: E. coli BL21 (DE3) cells containing one of the pET28b plasmids from Table 2 or Table 3 were used to inoculate 1 L LB medium at OD of 0.1. […] The activity of the respective purified enzyme was determined by measuring the absorbance decrease at 384 nm in the reaction mix (CHI in 50 mM PBS with 100 μM of either naringenin chalcone, hesperetin chalcone, eriodictyol chalcone, homoeriodictyol chalcone or 4-O-methyl butein at 25° C.).
The threshold is inclusive: Specific activity, Naringenin chalcone of exactly 30 counts as MET; values below receive NOT MET.

For orientation, consider the following solved cases.
CHI12: Chalcone isomerase from Holophaga foetida, access no. WP_005036737.1 (protein, listed as Holophaga foetida) TVEFCPMRSLIYVGLSKEKYRHLLQNWLYRIHIPDSISQFGPYVTKYAFYNALPVPPEGERFGTIKMQLTEHYWQCNPFQQAVAVKTFKEVFPIDVLRWQGNMPDESDGAVELEGDEARSAKGGQGAKPFIFAFVPLWWEEDIKGKMRTIADGPNYRWQFVMKYPEGVSQEQGDKWFLEEVAPAFAAMPEVNRILSSKIIQNVNGCSFNRVVEMWFDGPDEWYAAAVTKAAALPKPTWAKQDKFPFLASDYEFASVFLTDYATSDNLSQYRGYITLR = MET
CHI14: Chalcone isomerase from Butyrivibrio sp. AC2005, access no. WP_026657636.1 (protein, Butyrivibrio sp. AC2005) AYEFNLMRSLIYVGLAKEEYRAKLEHWLYNHHVPESISKFSPYVTKYAFYQAYPTPPEGDRFGARKMQLTEHYWLVNEHLPEMANNIFQEFMPMDVLRWQGCIPDVDSATVHDNAESGDAGRAVGGGDFPPFIFAFVPINWEEDFKGKERTPVNGPNFRWQFLIQYPEGCSKDEGERWFHEEVVPFLTGSVRVNRLVSSKVKVNYGAPSAQFDRLVEVWFDGPEEWYDLCVNLAKDKLKKPEWAQQDTFPFLKPQHNIASMFLGDRCTSDNLTQYRGFITMR = MET
CHIera Mut12: Chalcone isomerase variant 12 from Eubacterium ramulus, genetically engineered (protein, listed as Eubacterium ramulus) MADFKFEPMRSLIYVDCVSEDYRPKLQRWIYKVHIPDSISKFEPYVTKYAFYPSFPIPPQGDRFGYARMQLTEHHWLVSPLDPRLEINAIAETFPMDVLVWQGQIPAAAHTDAQIDSDGDAARAARKSNNAEGNPFIFAFLPMWWEKDLKGKGRTIEDGANYRFNMTIGFPEGVDKAEGEKWLFEKVVPILQAAPECTRVLASAVKKDINGCVMDWVLEIWFENQSGWYKVMVDDMKALEKPSWAQQDAFPFLKPYHNVCSAAVADYTPSNNLANYRGYITMR = NOT MET

Q: Hi team, for CHI5: Chalcone isomerase from Parasporobacterium paucivorans, access no. WP_073993359.1 (protein, Parasporobacterium paucivorans) GPEFQPMRSLIYVDCVKEEYRHRLQNWLYHYHVPDSISQFAPYVSKYCFYNALPTPPEGERFGTIRQQLTEHYWMVNPFTEHFKNKALTEYFPCDVLKWQGNIPDDDLEVNFEGDEARSKGGHNGCAPFIFAFLPLCWEEDFKGKERTIENGPNYRWNFVMKYPEGTSMEEGDKWFYEKMIPAFQEMPEVTRILTSKVIQSINGCAFHRVVEMWFDGPNAWYQAAVVKAKNIEKPSWASVDAFPYLQATFEFDGIFLTDYAASDNMSQYRGYLAMR , is the recorded Specific activity, Naringenin chalcone at or above 30?
A: MET

Q: Hi team, for CHI9: Chalcone isomerase from Roseburia sp. OM02-15, access no. WP_118702262.1 (protein, Roseburia sp. OM02-15) GEITYQPLRSLIYVDCVKEEYRHKLQHWLYYYHAPESIAKFEPWVTKYAFYNALPTPPQGERFGTYRMQLTEHYWMVNPMSQESLVNSLNEYFPIDAMIWQGTLPENAKEDGFMADGEAARASGGDNGCPPFIFAFLPIFWEQDLKGAGRTMVDGPNYRWQFLVSYPEGHKEDGDQWMMNEVLPAFAAMPEVTRMMTSKVKKEINNCHMDRCVEMWFDGPEEWYHCAVENAASFKKPEWAEYDNFPYLRPQFQFASLFLTDIATSDNLKQYRGYLPMR , is the recorded Specific activity, Naringenin chalcone at or above 30?
A: NOT MET

Q: Hi team, for CHIera Mut11: Chalcone isomerase variant 11 from Eubacterium ramulus, genetically engineered (protein, listed as Eubacterium ramulus) MADFKFEPMRSLIYVDCVSEDYRPKLQRWIYKVHIPDSISQFEPYVTKYAFYPSFPIPPQGDRFGYARMQLTEHHWLVSPLDPRLEIKAIAETFPMDVLVWQGQIPAAAHTDAQIDSDGDAGDAARKSNNAEGNPFIFAFLPMWWEKDLKGKGRTIEDGANYRFNMTIGFPEGVDKAEGEKWLFEKVVPILQAAPECTRVLASAVKKDINGCVMDWVLEIWFENQSGWYKVMVDDMKALEKPSWAQQDAFPFLKPYHNVCSAAVADYTPSNNLANYRGYITMR , is the recorded Specific activity, Naringenin chalcone at or above 30?
A: MET

Q: Hi team, for CHIera Mut2: Chalcone isomerase variant 2 from Eubacterium ramulus, genetically engineered (protein, listed as Eubacterium ramulus) MADFKFEPMRSLIYVDCVSEDYRPKLQRWIYKVHIPDSISQFEPYVTKYAFYPSFPIPPQGDRFGYARMQLTEHHWLVSPLDPRLEIKAIAETFPMDVLVWQGQIPAAAHTDAQIDSDGDAGRAAGKSNNAEGNPFIFAFLPMWWEKDLKGKGRTIEDGANYRFNMTIGFPEGVDKAEGEKWLFEKVVPILQAAPECTRVLASAVKKDINGCVMDWVLEIWFENQSGWYKVMVDDMKALEKPSWAQQDAFPFLKPYHNVCSAAVADYTPSNNLANYRGYITMR , is the recorded Specific activity, Naringenin chalcone at or above 30?
A: NOT MET

Q: Hi team, for CHI4: Chalcone isomerase from Acetoanaerobium noterae, access no. WP_079589066.1 (protein, listed as Acetoanaerobium noterae) ADFEFNPMRSLIYVDVVKEDYRHMLKHWLYRHHIPDSISQFGPYVTKYAFYPALPTPPEGDRFGTIRMQLTEHYWTVNPFTSNFKNKAFTEFFPIDILKWQGNIPDDSKVAALEGEEVVKLEGDDARASGGDNGCPPFIFAFVPICWEEDFKGSQRTVEDGPNYRWQFVMKYPEGVTMKEGDKWFYEEMIPKFKDMPDVLRILSSKIIQQVNGCPYHRVVEMWFNCPSAWYRSAVEKAKEIKKPSWAKYDVFPYLKPKFEIASLFLTDIAESDNYSQYRGYITMR , is the recorded Specific activity, Naringenin chalcone at or above 30?
A: MET
